Test system: MOLT-4 leukemia
Experiment description: NCI tumour cell line growth inhibition, 48 h
Metric: TGI

*Q* Param readout= TGI; system= MOLT-4 leukemia; entry= CO[C@@H]1C[C@H]2[C@@H]3CC[C@H]([C@H](C)CO)[C@@]3(C)CC[C@@H]2[C@@]2(C)CC[C@H]3C[C@]312 ; returns value.
*A* > 100 µM

*Q* O=C(CCC(C(=O)OCc1ccccc1)C(=O)OCc1ccccc1)Nc1ccc(OCc2ccccc2)cc1 , same question.
*A* > 100 µM

*Q* CCN1C(=O)C(=C/C=C/c2ccc(OC)cc2)C(=O)N(CC)C1=S , same question.
*A* > 100 µM

###

Tested on: HL-60(TB) leukemia
Experiment description: NCI tumour cell line growth inhibition, 48 h
Metric: TGI

*Q* Recorded TGI for Cn1c(=O)n(CCCO)c(=O)c2c1nc(Oc1cccc(OC(F)(F)F)c1)n2Cc1ccc(Cl)cc1 , please?
*A* 22.9 µM

*Q* Cc1c(NC(=O)/C(=N/NC(=S)N=N)C2C(=O)CC(C)(C)CC2=O)c(O)c2ccccc2c1O , same question.
*A* 22.7 µM

*Q* COc1ccc(/C=C/c2nsc(/C=C/c3ccc(OC)cc3)n2)cc1 , same question.
*A* > 100 µM

*Q* c1cc(-c2ccc(-c3ccc(C4=NCCCN4)cc3)o2)ccc1C1=NCCCN1 , same question.
*A* > 100 µM

*Q* O=C1c2ccccc2C(=Nc2ccc3ccccc3c2)C1(C1=C(c2ccccc2)C(=Nc2ccc3ccccc3c2)c2ccccc21)c1ccccc1 (stereo not drawn) , same question.
*A* > 29 µM

*Q* COc1cccc(/C=C/c2ccc(S(N)(=O)=O)cc2)c1 , same question.
*A* 77.7 µM

*Q* Cn1c2c([N+](=O)[O-])cccc2c(=O)c2c(O)cc3c(c21)C=CC(C)(C)O3 , same question.
*A* > 100 µM

*Q* COc1ccc([C@@H]2C[C@@H]3C(=O)OC(=O)[C@@H]3c3c2c2ccccc2n3C)cc1 , same question.
*A* > 100 µM

###

System: BT-549 breast
Experiment description: NCI tumour cell line growth inhibition, 48 h
Exercise: for every item that follows, state its recorded TGI.

*Q* Recorded TGI for CCNCCCCNCCCCNCCCCNCCCCNCC , please?
*A* > 100 µM

*Q* C=CCN(Cc1ccncc1)C(=O)C(O)(c1ccccc1)c1ccccc1 , same question.
*A* > 100 µM

*Q* CCOC(=O)NC(Nc1ccc(OC(F)(F)F)cc1)(C(F)(F)F)C(F)(F)F , same question.
*A* > 100 µM

*Q* Oc1ccc(-c2nc3ccc4ccccc4c3c3c2CCCC3)c(O)c1 , same question.
*A* > 100 µM

*Q* CCOC(=O)c1ccc2c(c1)[n+](=O)c(C(=O)C1CCCS1)c(C(F)(F)F)n2[O-] (stereo unspecified) , same question.
*A* 1.08 µM

*Q* COC(=O)C1C(O)C(C)C(=O)C(C)/C=C\C=C(C)C(=O)Nc2c(C)c(OC(C)=O)c3c(c2O)C(=O)C(C)=C2OCOC(=C23)C(C)=CC(C)(O)C(O)C(C)C1O (stereo unspecified) , same question.
*A* > 100 µM

###

System: M14 melanoma
Experiment description: NCI tumour cell line growth inhibition, 48 h
Metric: TGI

*Q* Recorded TGI for COC(=O)Cc1cccc2c1CCC2=O , please?
*A* > 100 µM

*Q* COc1ccc(N2C(=O)C3c4[nH]c5ccccc5c4C4CCC(c5ccccc5)CC4C3C2=O)cc1 (stereo not drawn) , same question.
*A* > 94.4 µM

*Q* COc1ccc([C@@H]2C[C@@H]3C(=O)OC(=O)[C@@H]3c3c2c2ccccc2n3C)cc1 , same question.
*A* > 100 µM
